B1: CPEB3 Ribozyme (parent)
chain: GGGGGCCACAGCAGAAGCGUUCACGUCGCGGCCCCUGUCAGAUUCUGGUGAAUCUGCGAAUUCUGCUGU

Variants of: B1
Test: self-cleavage, relative activity (ratio to wild type); higher = more cleavage; co-transcriptional
// map self-cleavage onto a label; ranges group 1 (below 0.2), group 2 (0.2 to below 0.4), group 3 (0.4 or more)

Q: Where would GGGGGCCACAGCAGAAUCGUUCACGUCGCGGCCCCUGUCAGAUUCUGGUGAAUCUACGAAUUCUGCUGU [G17U G56A] land among the classes by reported self-cleavage?
Ans: group 2

Q: Which self-cleavage band matches GGGGGCCACAGCAGAAGCGUUCACGUCGCGGCCCCUGUCAGAUUCUGGUGAAUCUGGGAUUUCUGCUGU [C57G A60U] ?
Ans: group 2

Q: Kindly state the category for this variant: GGGGGCCACAGCGGAAGCGUUCACGUCGCGGCCCCUGUCGGAUUCUGGUGAAUCUGCGAAUUCUGCUGU [A13G A40G]
Ans: group 3

Q: Sort into band: GAGGGCCACAGCAGAAGCGUUCACGUCGCGGCCCCUGUUAGAUUCUGGUGAAUCUGCGAAUUCUGCUGU [G2A C39U]
Ans: group 1

Q: Which self-cleavage band matches GGGGGCCACAGCAGAAGCGUUCACGUCGCGGUCCCUGUCAGAUUCUGGUGAAUCUGCGAACUCUGCUGU [C32U U61C] ?
Ans: group 3

Q: Assign a bin to GGGGGUCAUAGCAGAAGCGUUCACGUCGCGGCCCCUGUCAGAUUCUGGUGAAUCUGCGAAUUCUGCUGU [C6U C9U]
Ans: group 3

Q: Class for GGUGGCCACAGCAGAAGCGUUCACGUCGCGGCCCCUGUCAGAUUCUGGUGAAUAUGCGAAUUCUGCUGU [G3U C54A] ?
Ans: group 1

Q: Into which bin does this variant go? GGGGGCCACAGCAGAAGCGUUCACGUCGCGGCCCCUGUCAGAUUCUGGUGAAUCUGCGUUUUCUGCUGU [A59U A60U]
Ans: group 2

Q: For GGCGGCCACGGCAGAAGCGUUCACGUCGCGGCCCCUGUCAGAUUCUGGUGAAUCUGCGAAUUCUGCUGU [G3C A10G] , which self-cleavage bin applies?
Ans: group 2

Q: Assign a category based on measured self-cleavage for GGGGGCCACAGCAGAAGCGUUCACGUCGGGGCCCCUGUCAGAUUCUGGUGAAUCUGCCAAUUCUGCUGU [C29G G58C] and give only the class name.
Ans: group 3

Q: For the record GGGGGCCACAGCAGAAGCGUUGACGUCGCUGCCCCUGUCAGAUUCUGGUGAAUCUGCGAAUUCUGCUGU [C22G G30U] , report the class its self-cleavage corresponds to.
Ans: group 1

Q: Record GGGGGCCACAGCAGAAGCGUUCACGUCGCGGCCCCUGUCAGAUUCUGGUGAAUGCGCGAAUUCUGCUGU [C54G U55C] — which class?
Ans: group 2
